Experiment: TNF-a-driven NF-kB reporter inhibitors, primary screen, selectivity assay for NOD1/NOD2 signaling inhibitor project, cell-based, HEK293T NF-kB-Luc, luminescence (AID 1852)
Settings: TNF-a induced, 14 h, at 4 µM
The whole screen tested about 2,500 compounds, of which about 1,100 (44%) were called active.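 Rule for the calls: active = inhibition above 50% at 4 µM in the single-point screen; inactive = inhibition of 50% or less.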 So high a share suggests a set chosen from earlier hits. This is one part of the list.
Classes used: active, inactive

CC(=O)NC(c1ccco1)c1ccc2cccnc2c1O (configuration not stated)	inactive
CCOC(=O)c1sc(NC(=O)CSc2n[nH]c(-c3ccccc3)n2)c(C#N)c1C	inactive
O=C(O)COc1ccc(-c2nccc(-c3ccccn3)n2)cc1	inactive
Cc1ccc(NC(=O)Cc2cc(C(=O)O)c3ccccc3n2)c(C)c1	inactive
CC(C)CCn1c(Sc2nc3ccccc3o2)nc2c1c(=O)[nH]c(=O)n2C	inactive
COc1ccc(NC(=O)Nc2nnc(-c3ccncc3)s2)cc1	inactive
Cc1ccc(C(=O)N/N=C/c2c(O)ccc3ccccc23)cn1	active
CCOC(=O)c1sc(NC(=O)c2cc(-c3ccccc3C)nc3ccccc23)c(C#N)c1C	active
Cc1[nH]n(-c2nc(-c3ccc(Cl)cc3)cs2)c(=O)c1N=Nc1ccc(O)cc1	inactive
Cc1ccc(NS(=O)(=O)c2sc3ccc(Cl)cc3c2C)cc1	inactive
O=C(c1ccc2c(c1)N(Cc1ccccc1)C(=O)c1ccccc1S2)N1CCCC1	inactive
CN(Cc1ccccc1)S(=O)(=O)c1nnc(NC(=O)c2ccc(F)cc2)s1	active
CCOc1ccc(/C=C2/Sc3ccc(C(=O)N4CCOCC4)cc3N(C)C2=O)cc1OC	active
NC(=S)n1[nH]c(-c2ccc([N+](=O)[O-])cc2)c(N=Nc2cccc([N+](=O)[O-])c2)c1=O	active
COc1cc(CNc2ccc3[nH]c(=O)[nH]c3c2)ccc1OCc1c(F)cccc1Cl	inactive
Nc1nccc(-c2ccc(-n3cnc4ccccc43)cc2)n1	active
CCOC(=O)c1cc(-c2ccccc2)sc1NC(=O)c1cc(OC)c(OC)c(OC)c1	inactive
CCOC(=O)c1c(-c2ccccc2)oc2cc(Br)c(O)c(C=O)c12	inactive
c1ccc2c(c1)ncn2-c1ccc(-c2ccnc(-c3ccncc3)n2)cc1	active
COCCN1CCN(C(=O)c2ccc3nc(Cc4ccc(OC)c(OC)c4)oc3c2)CC1	inactive
O=C1NC(=O)/C(=C\c2ccc(Oc3cnccn3)cc2)S1	inactive
O=C(NCc1ccccc1)C1=C[C@@H](c2csc3ccccc23)C[C@@H](OCCCCO)O1	active
O=C(c1ccc(S(=O)(=O)Cc2ccccc2Cl)c([N+](=O)[O-])c1)N1CCN(c2ccccn2)CC1	active
Cc1ccc([N+](=O)[O-])cc1N=Nc1c(-c2ccc([N+](=O)[O-])cc2)[nH]n(C(N)=S)c1=O	active
COc1ccc(OC)c(-c2csc(NC(=O)C3=NNC(=O)CC3)n2)c1	inactive
CC(C)C(=O)NC(c1cccs1)c1cc([N+](=O)[O-])c2cccnc2c1O (configuration not stated)	active
Cc1ccccc1-c1cc(C(=O)Nc2sc(C(=O)OC(C)C)c(C)c2C#N)c2ccccc2n1	active
COc1ccc(Cc2noc(CN3CCN(Cc4cccc(Cl)c4)CC3)n2)cc1OC	inactive
CC(C)(C)c1ccc(/C=N/Nc2ccc(C(=O)O)cc2)cc1	inactive
O=C(Nc1cccc(C(=O)O)c1)Nc1ccccc1Cl	inactive
CCOc1ccccc1NC(=O)Nc1ccc(Cl)cc1	inactive
COc1ccc(C(=O)Nc2nnc(S(=O)(=O)N(C)Cc3ccc(F)cc3)s2)cc1OC	inactive
CN(Cc1ccc(F)cc1)S(=O)(=O)c1nnc(NC(=O)c2ccccc2)s1	inactive
CCOC(=O)c1sc(NC(=O)c2cc(-c3ccccc3)nc3ccccc23)c(C#N)c1C	active
O=C(Nc1cccc(NC(=O)c2sc3ccccc3c2Cl)c1)c1ccco1	inactive
CCOc1ccc(C(=O)/C=C/c2cc(OC)c(OC)c(OC)c2)cc1	inactive
CCOc1cc(/C=C(/C#N)c2ccc(Cl)cc2)cc(Cl)c1OCC(=O)O	active
O=C(Nc1nccs1)c1sc2cc(Cl)ccc2c1Cl	active
COc1cc(-c2cc(C(=O)Nc3ccc(N4CCOCC4)cc3)c3ccccc3n2)cc(OC)c1OC	inactive
COc1cccc(NC(=O)Nc2nc(-c3ccc(OC)c(OC)c3)cs2)c1	active
CC1CCN(C(=O)c2ccc(S(=O)(=O)Cc3cc(F)ccc3F)c([N+](=O)[O-])c2)CC1	active
COc1ccc(CCNS(=O)(=O)c2ccc(Br)s2)cc1	inactive

Where do the numbers come from? From PubChem BioAssay AID1852.
